For each record, write down the corresponding melting point.

Worked cases, melting point given:
COc1ccc(C(=O)/C=C/c2ccc(OC)c(CC=C(C)C)c2)c(O)c1 | 82 to 84 °C
COc1ccc(C(=O)C=Cc2ccc(OCC=C(C)C)cc2)c(O)c1 | 95 to 97 °C
COc1ccc2c(c1)OC(c1ccc(OCC=C(C)C)cc1)CC2=O (racemic) | 108 to 110 °C

I'm hoping you can list melting point for every compound here, please.
1. CC(C)=CCc1cc(C2CC(=O)c3ccc(O)cc3O2)ccc1O (racemic)
2. CC(C)=CCc1cc(/C=C/C(=O)c2ccc(O)cc2O)ccc1O
3. COc1ccc(C(=O)/C=C/c2ccc(O)c(CC=C(C)C)c2)c(O)c1
4. COc1ccc(/C=C/C(=O)c2ccc(O)cc2O)cc1CC=C(C)C

1. 76 to 78 °C
2. 167 °C
3. 80 to 82 °C
4. 166 to 168 °C

###

- study_target: aromatase (CYP19, BD Biosciences) (Homo sapiens, UniProt P11511)
- Sequence (P11511 whole entry): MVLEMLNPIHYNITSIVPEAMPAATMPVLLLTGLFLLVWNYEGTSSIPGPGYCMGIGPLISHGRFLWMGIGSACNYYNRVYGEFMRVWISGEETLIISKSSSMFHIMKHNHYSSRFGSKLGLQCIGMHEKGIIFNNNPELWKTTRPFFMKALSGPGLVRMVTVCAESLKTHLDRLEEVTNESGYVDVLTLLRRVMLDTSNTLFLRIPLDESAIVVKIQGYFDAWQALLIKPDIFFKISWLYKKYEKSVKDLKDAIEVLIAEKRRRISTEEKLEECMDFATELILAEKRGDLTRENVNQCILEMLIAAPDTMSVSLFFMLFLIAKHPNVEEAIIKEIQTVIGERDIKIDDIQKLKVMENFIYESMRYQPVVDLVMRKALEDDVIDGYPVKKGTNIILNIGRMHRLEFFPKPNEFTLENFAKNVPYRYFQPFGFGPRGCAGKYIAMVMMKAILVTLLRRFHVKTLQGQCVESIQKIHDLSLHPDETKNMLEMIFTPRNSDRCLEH
- protocol_summary: Assay for inhibition of aromatase activity (fluorescence, dibenzylfluorescein)
measured_metric: IC50

COc1ccc(C(=O)C=Cc2ccc(OCC=C(C)C)cc2)c(O)c1 | > 271 µM
COc1ccc(C(=O)/C=C/c2ccc(OC)c(CC=C(C)C)c2)c(O)c1 | > 284 µM
COc1ccc(C(=O)/C=C/c2cccc(CC=C(C)C)c2)c(O)c1 | > 310 µM
COc1ccc(/C=C/C(=O)c2ccccc2O)cc1CC=C(C)C | > 310 µM
COCOc1ccc(C(=O)/C=C/c2ccc(OCOC)c(CC=C(C)C)c2)c(O)c1 | > 243 µM

Respectfully, I request IC50 for each entry included below.
1. COc1ccc(/C=C/C(=O)c2ccc(OC)cc2O)cc1
2. CC(C)=CCc1cc(/C=C/C(=O)c2ccc(O)cc2O)ccc1O
3. COc1ccc(C(=O)/C=C/c2ccc(O)c(CC=C(C)C)c2)c(O)c1
4. COCOc1ccc(/C=C/C(=O)c2ccc(OC)cc2O)cc1CC=C(C)C
5. COCOc1ccc(C(=O)/C=C/c2ccc(OC)c(CC=C(C)C)c2)c(O)c1

["> 352 µM", "> 308 µM", "> 295 µM", "> 261 µM", "> 261 µM"]
